From: the supplement of paper PMC11246515

test: total protein half-life in vivo (active degradation + dilution); higher = more stable protein; settings: wild type E. coli NCM3722; growth: N-lim chemostat; doubling time 12 h
Quick reference for total protein half-life in vivo among some sequences
// return numeric value only (unit: h, not printed)

sequence_chain	total protein half-life in vivo / h
MVELKEPLATLWRGKDAFAEVKKLNGEVFRELETRRTLRFELSGKSYFLKWHKGTTLKEIIKNLLSLRMPVLGADREWHAIHRLSDVGVDTMKGIGFGEKGLNPLTRASFIITEDLTPTISLEDYCADWAVNPPDIRVKRMLIARVATMVRKMHTAGINHRDCYICHFLLHLPFTGREDELKISVIDLHRAQIRAKVPRRWRDKDLIGLYFSSMNIGLTQRDIWRFMKVYFGMPLRKILSLEQNLLNMASVKAERIKERTQRKGL	11.4
MTNLNYQQTHFVMSAPDIRHLPSDTGIEVAFAGRSNAGKSSALNTLTNQKSLARTSKTPGRTQLINLFEVADGKRLVDLPGYGYAEVPEEMKRKWQRALGEYLEKRQSLQGLVVLMDIRHPLKDLDQQMIEWAVDSNIAVLVLLTKADKLASGARKAQLNMVREAVLAFNGDVQVETFSSLKKQGVDKLRQKLDTWFSEMQPVEETQDGE [P0A6P7]	9.45
MAVQKNVIKGILAGTFALMLSGCVTVPDAIKGSSPTPQQDLVRVMSAPQLYVGQEARFGGKVVAVQNQQGKTRLEIATVPLDSGARPTLGEPSRGRIYADVNGFLDPVDFRGQLVTVVGPITGAVDGKIGNTPYKFMVMQVTGYKRWHLTQQVIMPPQPIDPWFYGGRGWPYGYGGWGWYNPGPARVQTVVTE [P0AA91]	13.7
MHEITLCQRALELIEQQAAKHGAKRVTGVWLKIGAFSCVETSSLAFCFDLVCRGSVAEGCKLHLEEQEAECWCETCQQYVTLLTQRVRRCPQCHGDMLQIVADDGLQIRRIEIDQE [P0A700]	2.23
MDALELLINRRSASRLAEPAPTGEQLQNILRAGMRAPDHKSMQPWHFFVIEGEGRERFSAVLEQGAIAAGSDDKAIDKARNAPFRAPLIITVVAKCEENHKVPRWEQEMSAGCAVMAMQMAAVAQGFGGIWRSGALTESPVVREAFGCREQDKIVGFLYLGTPQLKASTSINVPDPTPFVTYF [P0ACY1]	7.1

query: Would you kindly share the measured total protein half-life in vivo for MKCPVCHQGEMVSGIKDIPYTFRGRKTVLKGIHGLYCVHCEESIMNKEESDAFMAQVKAFRASVNAETVAPEFIVKVRKKLSLTQKEASEIFGGGVNAFSRYEKGNAQPHPSTIKLLRVLDKHPELLNEIR ?
result: 1.08

query: Entry to check: MAYSKIRQPKLSDVIEQQLEFLILEGTLRPGEKLPPERELAKQFDVSRPSLREAIQRLEAKGLLLRRQGGGTFVQSSLWQSFSDPLVELLSDHPESQYDLLETRHALEGIAAYYAALRSTDEDKERIRELHHAIELAQQSGDLDAESNAVLQYQIAVTEAAHNVVLLHLLRCMEPMLAQNVRQNFELLYSRREMLPLVSSHRTRIFEAIMAGKPEEAREASHRHLAFIEEILLDRSREESRRERSLRRLEQRKN [P0ACL9]
result: 9.28

---

assay: total protein half-life in vivo (active degradation + dilution); higher = more stable protein; settings: E. coli NCM3722 delta-clpP; growth: N-lim chemostat; doubling time 6 h
readout_kind: total protein half-life in vivo
In your response, put the unit directly after the numeric value.

query: Would you kindly share the measured total protein half-life in vivo for MKEKTIIIVGGGQAAAMAAASLRQQGFTGELHLFSDERHLPYERPPLSKSMLLEDSPQLQQVLPANWWQENNVHLHSGVTIKTLGRDTRELVLTNGESWHWDQLFIATGAAARPLPLLDALGERCFTLRHAGDAARLREVLQPERSVVIIGAGTIGLELAASATQRRCKVTVIELAATVMGRNAPPPVQRYLLQRHQQAGVRILLNNAIEHVVDGEKVELTLQSGETLQADVVIYGIGISANEQLAREANLDTANGIVIDEACRTCDPAIFAGGDVAITRLDNGALHRCESWENANNQAQIAAAAMLGLPLPLLPPPWFWSDQYSDNLQFIGDMRGDDWLCRGNPETQKAIWFNLQNGVLIGAVTLNQGREIRPIRKWIQSGKTFDAKLLIDENIALKSL ?
result: 1.04 h
